Answer each item with its documented HC50, concentration causing 50% hemolysis compared to water.
Test system: washed human erythrocytes
Format: cell-based
EXPERIMENTAL_CONTEXT: red cells of human, 3 h
Where a SMILES comes first, the peptide text is derived from it. [ ]: non-standard residue; d: D form. The star is where a group is joined. Myristoyl = CCCCCCCCCCCCCC(=O)*; 12Ado = NCCCCCCCCCCCC(=O)O
Express the result in µM but write the number alone.

// query HC50, concentration causing 50% hemolysis compared to water value for entry CCCCCCCCCCCCCC(=O)N[C@@H](CCCCN)C(=O)N[C@@H](CCCCN)C(=O)NCCCCCCCCCCCC(=O)N[C@@H](CCCCN)C(N)=O [C14KKc12K] (Myristoyl-KK[12Ado]K-NH2) 12

Repeat with CCCCCCCCCCCCCC(=O)N[C@@H](CCCN)C(=O)N[C@@H](CCCN)C(=O)NCCCCCCCCCC(=O)N[C@@H](CCCN)C(N)=O [C14OOc10O] 28

These measurements were taken from paper PMC8621570.
